The values you see were collected from PubChem BioAssay AID2060492.

Tested on: 695427-040-R-J1-PDC complex spheroids, viability percent T/C;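 further: spheroids exposed to compounds for seven days before readout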
Protocol text: Anticancer human tumor 695427-040-R-J1-PDC patient-derived colon adenocarcinoma cell line growth inhibition [GQUAD]; active means viability on the fitted dose curve at most 10% of control; inactive means the rest
Reported conditions: second compound 0.1 µM; first compound 1 µM
Your reply should match one of these outcome classes. active, inactive

### Prompt Assay result, entry C=CC(=O)N1CCN(c2nc(=O)n(-c3c(C)ccnc3C(C)C)c3nc(-c4c(O)cccc4F)c(F)cc23)C(C)C1 (centres undefined) + Cc1cnc(CNC(=O)c2c(=O)c3ccc(N4CCCN(C)CC4)nc3n3c2sc2ccccc23)cn1 — outcome?
### Response inactive

### Prompt Assay result, entry COc1cccc2c1C(=O)c1c(O)c3c(c(O)c1C2=O)CC(O)(C(=O)CO)CC3OC1CC(N)C(O)C(C)O1 (centres undefined) + CN(C)c1ccc(Nc2c3ccc(NC(=O)CCN4CCCC4)cc3nc3cc(NC(=O)CCN4CCCC4)ccc23)cc1 — outcome?
### Response inactive

### Prompt Assay result, entry O=C(NO)c1cnc(N2CCN(S(=O)(=O)c3ccc4ccccc4c3)CC2)nc1 + Cc1cnc(CNC(=O)c2c(=O)c3ccc(N4CCCN(C)CC4)nc3n3c2sc2ccccc23)cn1 — outcome?
### Response active

New cases:
### Prompt Assay result, entry COc1cc(C2c3cc4c(cc3C(OC3OC5COC(C)OC5C(O)C3O)C3COC(=O)C23)OCO4)cc(OC)c1O (centres undefined) + Cc1[nH]c2ccc(F)cc2c1-c1nc2c3cccnc3c3ncccc3c2[nH]1 — outcome?
### Response inactive

### Prompt Assay result, entry COc1ncnc(C2CC2)c1-c1ncc2cnn(Cc3ccc(-c4nc(C(F)(F)F)cn4C(C)C)cc3)c2n1 + Cc1cnc(CNC(=O)c2c(=O)c3ccc(N4CCCN(C)CC4)nc3n3c2sc2ccccc23)cn1 — outcome?
### Response inactive

### Prompt Assay result, entry Cc1cccc(N(C)C(=O)C2C(O)CCN2c2nc(C)cc(C(F)(F)F)c2C#N)c1 (centres undefined) + CN(C)c1ccc(Nc2c3ccc(NC(=O)CCN4CCCC4)cc3nc3cc(NC(=O)CCN4CCCC4)ccc23)cc1 — outcome?
### Response inactive

### Prompt Assay result, entry CC(C)n1c(=O)n(C)c2cnc3cc(F)c(-c4ccc(OCCCN5CCCCC5)nc4)cc3c21 + CN(C)c1ccc(Nc2c3ccc(NC(=O)CCN4CCCC4)cc3nc3cc(NC(=O)CCN4CCCC4)ccc23)cc1 — outcome?
### Response inactive

### Prompt Assay result, entry CC(C)n1c(=O)n(C)c2cnc3cc(F)c(-c4ccc(OCCCN5CCCCC5)nc4)cc3c21 + Cc1cnc(CNC(=O)c2c(=O)c3ccc(N4CCCN(C)CC4)nc3n3c2sc2ccccc23)cn1 — outcome?
### Response inactive

### Prompt Assay result, entry COc1ccc([C@@H](O)c2cc(-c3ncnc4cc(N5CCOCC5)ccc34)c(F)cc2Cl)nn1 + Cc1[nH]c2ccc(F)cc2c1-c1nc2c3cccnc3c3ncccc3c2[nH]1 — outcome?
### Response inactive

### Prompt Assay result, entry CC(C)n1c(=O)n(C)c2cnc3cc(F)c(-c4ccc(OCCCN5CCCCC5)nc4)cc3c21 + Cc1[nH]c2ccc(F)cc2c1-c1nc2c3cccnc3c3ncccc3c2[nH]1 — outcome?
### Response inactive

### Prompt Assay result, entry CC(C)(O)C1CCC(Nc2ccc3ncc(-c4cccc(C(F)(F)F)c4)n3n2)CC1 (centres undefined) + Cc1cnc(CNC(=O)c2c(=O)c3ccc(N4CCCN(C)CC4)nc3n3c2sc2ccccc23)cn1 — outcome?
### Response inactive

### Prompt Assay result, entry COc1ccc([C@@H](O)c2cc(-c3ncnc4cc(N5CCOCC5)ccc34)c(F)cc2Cl)nn1 + CN(C)c1ccc(Nc2c3ccc(NC(=O)CCN4CCCC4)cc3nc3cc(NC(=O)CCN4CCCC4)ccc23)cc1 — outcome?
### Response inactive

### Prompt Assay result, entry C#Cc1c(F)ccc2cc(O)cc(-c3ncc4c(N5CC6CCC(C5)N6)nc(OCC56CCCN5CC(F)C6)nc4c3F)c12 (centres undefined) + CN(C)c1ccc(Nc2c3ccc(NC(=O)CCN4CCCC4)cc3nc3cc(NC(=O)CCN4CCCC4)ccc23)cc1 — outcome?
### Response inactive

### Prompt Assay result, entry CC(C)(O)C1CCC(Nc2ccc3ncc(-c4cccc(C(F)(F)F)c4)n3n2)CC1 (centres undefined) + CN(C)c1ccc(Nc2c3ccc(NC(=O)CCN4CCCC4)cc3nc3cc(NC(=O)CCN4CCCC4)ccc23)cc1 — outcome?
### Response inactive
